target: TNK1 (human) (UniProt Q13470); assay: KINOMEscan competition binding; settings: compound 10.0 µM
Sequence (Q13470 whole entry, looked up): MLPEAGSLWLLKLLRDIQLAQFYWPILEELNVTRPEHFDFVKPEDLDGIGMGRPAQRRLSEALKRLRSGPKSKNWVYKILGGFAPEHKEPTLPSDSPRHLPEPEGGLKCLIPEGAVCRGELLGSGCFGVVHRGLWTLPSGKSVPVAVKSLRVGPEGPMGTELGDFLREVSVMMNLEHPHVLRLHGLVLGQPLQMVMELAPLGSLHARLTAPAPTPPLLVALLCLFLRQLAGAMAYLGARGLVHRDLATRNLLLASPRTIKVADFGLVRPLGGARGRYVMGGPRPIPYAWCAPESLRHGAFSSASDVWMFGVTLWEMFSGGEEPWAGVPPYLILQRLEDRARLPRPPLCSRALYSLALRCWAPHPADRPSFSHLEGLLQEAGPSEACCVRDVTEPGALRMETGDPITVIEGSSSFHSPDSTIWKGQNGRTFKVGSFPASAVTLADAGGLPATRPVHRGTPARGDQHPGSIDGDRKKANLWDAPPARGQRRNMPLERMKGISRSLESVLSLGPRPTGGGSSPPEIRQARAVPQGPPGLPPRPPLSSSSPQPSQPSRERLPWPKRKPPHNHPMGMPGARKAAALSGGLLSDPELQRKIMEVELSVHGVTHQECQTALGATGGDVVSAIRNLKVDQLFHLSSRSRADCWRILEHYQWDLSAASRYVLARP
Consider the cut-off 1%. If the recorded kinase still bound, per cent of control is strictly smaller, the label is 1.0; if not, the label is 0.0.

In the record for `COc1cc2ncn(-c3cc(OCc4ccccc4C(F)(F)F)c(C(N)=O)s3)c2cc1OC` , is kinase still bound, per cent of control less than 1%?
0.0

In the record for `O=C1NC(=O)/C(=C/c2ccc3nccc(-c4ccncc4)c3c2)S1` , is kinase still bound, per cent of control less than 1%?
0.0

In the record for `N#CCNC(=O)c1ccc(-c2ccnc(Nc3ccc(N4CCOCC4)cc3)n2)cc1` , is kinase still bound, per cent of control less than 1%?
0.0

In the record for `O=C(Nc1cccc(Nc2ncc(Br)c(NCCc3cnc[nH]3)n2)c1)N1CCCC1` , is kinase still bound, per cent of control less than 1%?
0.0

In the record for `C=CC(=O)Nc1cc(-n2c(=O)ccc3cnc4ccc(-c5cn[nH]c5)cc4c32)ccc1C` , is kinase still bound, per cent of control less than 1%?
0.0

In the record for `NC(=O)Nc1cc(-c2cccc(F)c2)sc1C(=O)N[C@@H]1CCCNC1` , is kinase still bound, per cent of control less than 1%?
0.0

In the record for `CN(C)C/C=C/C(=O)Nc1ccc(C(=O)Nc2cccc(Nc3nccc(-c4cccnc4)n3)c2)cc1` , is kinase still bound, per cent of control less than 1%?
0.0

In the record for `COc1cc(N2CCN(C)CC2)ccc1Nc1ncc2c(n1)N(C)c1ccccc1C(=O)N2C` , is kinase still bound, per cent of control less than 1%?
1.0

In the record for `COc1ccc(N(C(=O)Oc2c(C)cccc2C)c2ccnc(Nc3ccc(N4CCN(C)CC4)cc3)n2)c(OC)c1` , is kinase still bound, per cent of control less than 1%?
1.0

Source of measurements: the kinase profiling compilation of Christmann-Franck et al. (2016)
